biological target: Sirt2_56–356 (Homo sapiens); construct: human strep-tagged Sirt2_56–356 was expressed and purified; strep-tag; made in house; assay: Fluorescence thermal shift assay (DSF); assay type: binding; conditions: 1000 µM compound, 6.0 μM Sirt2
Sequence (Q8IXJ6 56-356): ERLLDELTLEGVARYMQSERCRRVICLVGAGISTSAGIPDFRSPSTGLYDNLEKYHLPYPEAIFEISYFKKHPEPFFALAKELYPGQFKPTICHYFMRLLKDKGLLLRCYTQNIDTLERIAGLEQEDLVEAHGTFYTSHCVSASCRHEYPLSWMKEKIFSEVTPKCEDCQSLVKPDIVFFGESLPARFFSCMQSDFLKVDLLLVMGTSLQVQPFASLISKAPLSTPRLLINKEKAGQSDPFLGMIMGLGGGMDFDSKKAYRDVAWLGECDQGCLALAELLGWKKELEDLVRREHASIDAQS
METRIC NAME: FTS-Assay Thermal shift at 1000 µM (°C)

{"columns": ["MOLECULE", "FTS-Assay Thermal shift at 1000 µM, °C"],
 "data": [
  ["CC1Sc2ccccc2NC(=O)C1C (stereo not shown)", 1.5]
]}

1. CC(=O)Nc1ccc2c(c1)CCC2
2. N#CCOc1cc(Cl)cc(Cl)c1
Pick one: 1 or 2 . Which has the bigger FTS-Assay Thermal shift at 1000 µM number? Kindly give the label for the entry you pick.
1
(1: 1.1 °C, 2: 0.7 °C)

A. c1ccc2c(CN3CCOCC3)csc2c1
B. CCOC(=O)Cc1cccc(Cl)c1
Of A and B , which carries the smaller reported FTS-Assay Thermal shift at 1000 µM figure? Kindly give the label for the entry you pick.
B

a. CC(=O)c1c(O)cccc1OCCC(C)C
b. C#Cc1ccc(-c2cnco2)cc1
c. Cc1ccc(=O)n(Cc2ccc(Cl)cc2)n1
d. CN(C(=O)c1cccs1)C1CC2CCC1C2 (stereo not shown)
Hey, quick one: sort these by FTS-Assay Thermal shift at 1000 µM, low to high? // list labels; follow requested order
d, b, c, a

I. COC(=O)c1sccc1-n1cccc1
II. CCOC(=O)Cc1ccc(OC)cc1
Of I and II , which carries the smaller reported FTS-Assay Thermal shift at 1000 µM figure? Kindly give the label for the entry you pick.
II

All figures here come from paper PMC12169609.
